Test system: Escherichia coli TOP10;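 further: peptides expressed intracellularly from a pBAD plasmid library in pooled LB shake-flask culture, induced with 0.3% L-arabinose, DNA abundance read by NGS, three biological replicates, DESeq2 with apeglm shrinkage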
Assay: shrunken log2 fold change of peptide-encoding DNA abundance (4.5 h post-induction vs induction); higher = less antimicrobial activity (less host growth inhibition)
Conditions: time post-induction: 4.5 h; library: site-saturation at positions 5, 18, 19, 20
Lab note: compare shrunken log2 fold change against 0.04. Equal or greater, write criterion met. Smaller, write criterion not met.

Please review the following examples before continuing.
1. RRIRPRPPRLPRPRPRPYIAPRP ... criterion not met
2. RRIRHRPPRLPRPRPRPSDAPRP ... criterion not met
3. RRIRDRPPRLPRPRPRPAHLPRP ... criterion met
4. RRIRARPPRLPRPRPRPLFVPRP ... criterion met
5. RRIRSRPPRLPRPRPRPPPHPRP ... criterion met
6. RRIRERPPRLPRPRPRPPNMPRP ... criterion not met
7. RRIRARPPRLPRPRPRPKPMPRP ... criterion met
8. RRIRIRPPRLPRPRPRPVYYPRP ... criterion not met
9. RRIRTRPPRLPRPRPRPMAYPRP ... criterion not met
10. RRIRSRPPRLPRPRPRPERNPRP ... criterion not met

Check the entry `RRIRVRPPRLPRPRPRPISGPRP` : does shrunken log2 fold change equal or exceed 0.04? criterion not met

Check the entry `RRIRMRPPRLPRPRPRPGNGPRP` : does shrunken log2 fold change equal or exceed 0.04? criterion met

Check the entry `RRIRFRPPRLPRPRPRPTNKPRP` : does shrunken log2 fold change equal or exceed 0.04? criterion not met
